Test system: MDA-MB-435
method summary: NCI human cancer cell line screen (COMPARE screening), Breast MDA-MB-435
Type: cell-based
pIC50: −log10 of the molar value.
value kind: pIC50

Recorded results for 3 compounds are shown here.
Query string: Record CCN1C(=O)c2cc(OC)c(OC)cc2[C@H]2C(=O)c3cc4c(cc3[C@H]21)OCO4 (relative stereo) [Compound 21] : what is its pIC50 with MDA-MB-435?
Result string: 6.35

Query string: API: value(readout=pIC50, system=MDA-MB-435) for record COc1cc2c(cc1OC)[C@H]1C(=O)c3cc4c(cc3[C@H]1N(C)C2=O)OCO4 (relative stereo) [Compound 20]
Result string: 4.77

Query string: Please tell me: pIC50 of O=C1c2ccccc2-c2c1c1ccccc1c(=O)n2CCCCCO [Compound 8] , system MDA-MB-435?
Result string: 4.39

A = C=CCN1C(=O)c2cc(OC)c(OC)cc2[C@H]2C(=O)c3cc4c(cc3[C@H]21)OCO4 (relative stereo) [Compound 22]
B = C=CCn1c2c(c3cc(OC)c(OC)cc3c1=O)C(=O)c1cc3c(cc1-2)OCO3 [Compound 13c]
Query string: Just tell me: smaller pIC50 value, A or B ? Please identify the chosen entry by its label.
Result string: B
(B: 5.28, A: 5.85)

====

Test system: DU-145
method summary: NCI human cancer cell line screen (COMPARE screening), Prostate DU-145
Type: cell-based
pIC50: −log10 of the molar value.
value kind: pIC50

A = C=CCn1c2c(c3cc(OC)c(OC)cc3c1=O)C(=O)c1cc3c(cc1-2)OCO3 [Compound 13c]
B = C=CCN1C(=O)c2cc(OC)c(OC)cc2[C@H]2C(=O)c3cc4c(cc3[C@H]21)OCO4 (relative stereo)
C = CCN1C(=O)c2cc(OC)c(OC)cc2[C@H]2C(=O)c3cc4c(cc3[C@H]21)OCO4 (relative stereo)
Query string: Order these by pIC50, descending, and give the full ranking. Order the labels as requested and list them.
Result string: C, B, A

====

target under test: topoisomerase I (Homo sapiens)
Sequence (P11387 1-765): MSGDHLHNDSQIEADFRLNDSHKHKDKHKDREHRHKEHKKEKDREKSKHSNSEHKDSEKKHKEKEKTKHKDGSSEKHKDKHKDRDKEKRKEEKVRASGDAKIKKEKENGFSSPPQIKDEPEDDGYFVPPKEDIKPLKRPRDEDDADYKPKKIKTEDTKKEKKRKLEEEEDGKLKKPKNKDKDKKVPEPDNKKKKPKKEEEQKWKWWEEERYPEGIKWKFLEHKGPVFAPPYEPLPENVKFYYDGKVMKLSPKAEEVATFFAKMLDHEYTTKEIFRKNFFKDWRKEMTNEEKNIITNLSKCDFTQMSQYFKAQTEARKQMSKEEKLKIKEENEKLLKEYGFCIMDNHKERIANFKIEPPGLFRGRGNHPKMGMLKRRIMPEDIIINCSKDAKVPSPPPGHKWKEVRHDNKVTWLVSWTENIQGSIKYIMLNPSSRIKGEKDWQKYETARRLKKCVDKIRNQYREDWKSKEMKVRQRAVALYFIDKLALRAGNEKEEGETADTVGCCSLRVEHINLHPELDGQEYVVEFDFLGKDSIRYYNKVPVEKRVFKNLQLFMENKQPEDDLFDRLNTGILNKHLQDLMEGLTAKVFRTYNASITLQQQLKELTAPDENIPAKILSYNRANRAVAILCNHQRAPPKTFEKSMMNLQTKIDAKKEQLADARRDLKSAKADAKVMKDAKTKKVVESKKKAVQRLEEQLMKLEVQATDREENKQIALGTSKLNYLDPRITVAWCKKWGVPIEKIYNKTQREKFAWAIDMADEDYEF
method summary: Topoisomerase I-mediated DNA cleavage assay (3'-end-labeled 161 bp pBluescript SK(-) fragment)
Assay type: biochemical
value kind: activity in the topoisomerase I cleavage assay (in words)

Query string: # activity in the topoisomerase I cleavage assay (in words) lookup, item COc1cc2c(cc1OC)[C@H]1C(=O)c3cc4c(cc3[C@H]1N(C)C2=O)OCO4 (relative stereo)
Result string: weak

====

System: HOP-62
method summary: NCI human cancer cell line screen (COMPARE screening), Lung HOP-62
Assay type: cell-based
condition label: Homo sapiens; HOP-62; concentration causing 50% growth inhibition; read-out: Cytotoxicity (G150 in μM) Lung HOP-62
IC50 by entry:
# value in µM; strip the unit string

Query string: Consider the molecule Cn1c2c(c3ccccc3c1=O)C(=O)c1cc(OCc3ccccc3)c(OCc3ccccc3)cc1-2 [Compound 13g] and give its measured IC50.
Result string: 72

Query string: Which IC50 is reported for this molecule? O=C1c2ccccc2-c2c1c1ccccc1c(=O)n2C1CC1 [Compound 5]
Result string: 61

Query string: Param item = Cn1c2c(c3ccccc3c1=O)C(=O)c1cc3c(cc1-2)OCO3 [Compound 13a] ; retrieve measured IC50.
Result string: 22

Query string: Item O=C(O)CCCn1c2c(c3ccccc3c1=O)C(=O)c1ccccc1-2 [Compound 26] has what recorded IC50?
Result string: 87

Query string: Entry COc1cc2c3c(n(CCCCO)c(=O)c2cc1OC)-c1cc2c(cc1C3=O)OCO2 [Compound 19a] : reported IC50 = ?
Result string: 0.7

New cases:
Query string: I am curious: what IC50 value has been reported for COc1ccc(Cn2c3c(c4cc(OC)c(OC)cc4c2=O)C(=O)c2cc4c(cc2-3)OCO4)cc1 [Compound 13f] ?
Result string: 20

Query string: Which IC50 is reported for this molecule? CCN1Cc2cc(OC)c(OC)cc2[C@@H]2[C@H]1c1cc3c(cc1[C@@H]2O)OCO3 [Compound 25]
Result string: 30

====

Test system: HCT-116
method summary: NCI human cancer cell line screen (COMPARE screening), Colon HCT-116
Format: cell-based
pIC50: −log10 of the molar value.
value kind: pIC50

Query string: I have this compound here, COc1cc2c(cc1OC)[C@H]1C(=O)c3cc4c(cc3[C@H]1N(C)C2=O)OCO4 (relative stereo) [Compound 20] , and I need its recorded pIC50.
Result string: 5.70

I = C=CCn1c2c(c3cc(OC)c(OC)cc3c1=O)C(=O)c1cc3c(cc1-2)OCO3 [Compound 13c]
II = O=C1c2ccccc2-c2c1c1ccccc1c(=O)n2CCCCCO [Compound 8]
III = CCN1C(=O)c2cc(OC)c(OC)cc2[C@H]2C(=O)c3cc4c(cc3[C@H]21)OCO4 (relative stereo) [Compound 21]
Query string: Hello, I need these entries ordered by pIC50, highest reading first. Thanks! Would you mind listing the labels in the order asked for?
Result string: III, I, II

====

Tested on: MDA-MB-435
method summary: NCI human cancer cell line screen (COMPARE screening), Breast MDA-MB-435
Format: cell-based
condition label: MDA-MB-435; concentration causing 50% growth inhibition; read-out: Cytotoxicity (G150 in μM) Breast MDA-MB-435
value kind: IC50 (µM)
Lab book: enter the figure in µM, no units written.

Query string: Field: IC50 (MDA-MB-435). Entry: COc1cc2c3c(n(C)c(=O)c2cc1OC)-c1cc2c(cc1C3=O)OCO2 [Compound 1, reference compound]
Result string: 96

====

Tested on: UACC-62
method summary: NCI human cancer cell line screen (COMPARE screening), Melanoma UACC-62
Assay type: cell-based
pIC50: −log10 of the molar value.
value kind: pIC50

In the examples that follow, each entry is paired with its recorded pIC50.
Query string: UACC-62 / pIC50 / COc1cc2c3c(n(C)c(=O)c2cc1OC)-c1cc(OC)c(OC)c(OC)c1C3=O [Compound 13i] : value?
Result string: 4.26

Query string: What pIC50 appears in the records for this compound with UACC-62? C=CCN1C(=O)c2cc(OC)c(OC)cc2[C@H]2C(=O)c3cc4c(cc3[C@H]21)OCO4 (relative stereo)
Result string: 6.42

I = O=C1c2ccccc2-c2c1c1ccccc1c(=O)n2CCCCCO
II = COc1cc2c(cc1OC)[C@H]1C(=O)c3cc4c(cc3[C@H]1N(C)C2=O)OCO4 (relative stereo)
Query string: Hi! Which is lower in terms of pIC50, the first one I or the second one II ? Please indicate the selected item by its label.
Result string: I
(I: 4.84, II: 6.38)

====

System: HCT-116
method summary: NCI human cancer cell line screen (COMPARE screening), Colon HCT-116
Assay type: cell-based
condition label: Homo sapiens; HCT-116; concentration causing 50% growth inhibition; read-out: Cytotoxicity (G150 in μM) Colon HCT-116
# IC50 per entry

Known results for compounds:
Query string: Please state recorded IC50 (tested on HCT-116) of O=C1c2ccccc2-c2oc(=O)c3ccccc3c21 [Compound 2, benz[d]indeno[1,2-b]pyran-5,11-dione]
Result string: > 100 µM

Query string: Observed IC50 on HCT-116 for COc1ccc(Cn2c3c(c4cc(OC)c(OC)cc4c2=O)C(=O)c2cc4c(cc2-3)OCO4)cc1 [Compound 13f] , please.
Result string: > 100 µM

Query string: # get_value(readout= IC50, system= HCT-116) for O=C1c2ccccc2-c2c1c1ccccc1c(=O)n2C1CC1 [Compound 5]
Result string: > 100 µM

More entries:
Query string: Form entry - test system: HCT-116; read-out: IC50; compound: COc1cc2c3c(n(Cc4ccccc4)c(=O)c2cc1OC)-c1cc2c(cc1C3=O)OCO2 [Compound 13e]
Result string: > 100 µM
